Values were extracted from patent US20220089784A1.

- subject_of_test: T1, BoNT/B1 (Clostridium botulinum, UniProt P10844 2-1291)
- T1 sequence: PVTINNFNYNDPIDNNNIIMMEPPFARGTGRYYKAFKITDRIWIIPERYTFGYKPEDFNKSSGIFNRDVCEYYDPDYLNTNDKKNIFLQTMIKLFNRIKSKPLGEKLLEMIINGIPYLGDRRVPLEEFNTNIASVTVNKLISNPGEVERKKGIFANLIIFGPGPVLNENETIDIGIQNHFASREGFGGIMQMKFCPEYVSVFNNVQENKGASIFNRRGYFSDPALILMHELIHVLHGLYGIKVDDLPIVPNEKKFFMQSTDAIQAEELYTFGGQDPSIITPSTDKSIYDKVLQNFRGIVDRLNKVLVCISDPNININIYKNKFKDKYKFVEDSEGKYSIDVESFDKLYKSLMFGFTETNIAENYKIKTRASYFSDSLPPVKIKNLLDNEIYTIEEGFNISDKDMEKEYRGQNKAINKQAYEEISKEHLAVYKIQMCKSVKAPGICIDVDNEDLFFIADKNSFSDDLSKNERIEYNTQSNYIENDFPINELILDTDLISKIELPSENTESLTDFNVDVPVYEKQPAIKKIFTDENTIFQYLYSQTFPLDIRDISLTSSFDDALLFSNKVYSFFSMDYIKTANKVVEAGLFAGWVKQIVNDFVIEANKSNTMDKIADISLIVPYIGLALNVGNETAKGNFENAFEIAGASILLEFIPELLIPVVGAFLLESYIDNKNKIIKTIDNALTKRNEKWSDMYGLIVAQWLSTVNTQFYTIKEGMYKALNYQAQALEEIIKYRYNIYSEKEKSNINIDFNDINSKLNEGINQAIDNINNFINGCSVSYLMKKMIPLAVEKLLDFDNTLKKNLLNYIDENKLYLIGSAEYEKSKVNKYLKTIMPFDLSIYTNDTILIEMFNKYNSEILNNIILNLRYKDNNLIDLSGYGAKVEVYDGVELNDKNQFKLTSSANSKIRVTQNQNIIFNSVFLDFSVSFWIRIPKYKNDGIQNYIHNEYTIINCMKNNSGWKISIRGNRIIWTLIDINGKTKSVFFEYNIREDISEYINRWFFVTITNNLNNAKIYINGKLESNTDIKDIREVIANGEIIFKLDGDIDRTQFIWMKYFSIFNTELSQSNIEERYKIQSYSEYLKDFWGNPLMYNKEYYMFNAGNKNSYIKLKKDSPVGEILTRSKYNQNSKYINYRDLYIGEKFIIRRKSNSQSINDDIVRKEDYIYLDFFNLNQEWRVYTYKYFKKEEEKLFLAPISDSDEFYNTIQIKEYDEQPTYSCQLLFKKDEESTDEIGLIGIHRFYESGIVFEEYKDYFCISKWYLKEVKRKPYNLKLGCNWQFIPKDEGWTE
- assay_overview: yeast scFv FACS
pKd: −log10 of the molar value.
measurement_label: pKd

1) 26D9 scFv (scFv, mouse) scFv: DVQLQESGAELVKPGASVKLSCKASGFTFTDYWMHWVKQRPGQGLEWIGMIHPYNGDNNYHEKFKSKATLTVDKSSSTAYMQLSSLTTEDSAVYYCVRNDYDPYYYALDYWGQGTSLTVSAVDLKSGGSTSGSGKPGSGEGSSGSARQIVLTQSPAIMSASPGEKVTMSCRASSSVSYVYWYQQKPGSSPKPWIYRTSNLASGVPVRFSGSGSGTSYSLTISRVEAEDAATYYCQQWSSYPPTFGGGTKLEIK; 9.24
